- assay-name: Cytotoxicity against human HCT116/VM46 cells assessed as reduction in cell viability after 72 hrs by phosphatase assay
- Assay type: cell-based
- experimental-conditions: HCT-116/VM46, 72 h
pIC50: −log10 of the molar value.
Would you please tag the item Fulfilled when its pIC50 is 7 or above, and Not fulfilled when it is below?

CC[C@]1(NC(=O)c2ccc(NS(C)(=O)=O)cc2)C[C@H]2CN(CCc3c([nH]c4ccccc34)[C@@](C(=O)OC)(c3cc4c(cc3OC)N(C)[C@H]3[C@@](O)(C(=O)OC)[C@H](OC(C)=O)[C@]5(CC)C=CCN6CC[C@]43[C@@H]65)C2)C1 = Fulfilled
CC[C@]1(NC(=O)C(c2ccccc2)c2ccccc2)C[C@H]2CN(CCc3c([nH]c4ccccc34)[C@@](C(=O)OC)(c3cc4c(cc3OC)N(C)[C@H]3[C@@](O)(C(=O)OC)[C@H](OC(C)=O)[C@]5(CC)C=CCN6CC[C@]43[C@@H]65)C2)C1 = Not fulfilled
CC[C@]1(NC(=O)c2ccc(Br)cc2)C[C@H]2CN(CCc3c([nH]c4ccccc34)[C@@](C(=O)OC)(c3cc4c(cc3OC)N(C)[C@H]3[C@@](O)(C(=O)OC)[C@H](OC(C)=O)[C@]5(CC)C=CCN6CC[C@]43[C@@H]65)C2)C1 = Fulfilled
CC[C@]1(NC(=O)c2ccc(N)cc2)C[C@H]2CN(CCc3c([nH]c4ccccc34)[C@@](C(=O)OC)(c3cc4c(cc3OC)N(C)[C@H]3[C@@](O)(C(=O)OC)[C@H](OC(C)=O)[C@]5(CC)C=CCN6CC[C@]43[C@@H]65)C2)C1 = Fulfilled

Exercise: Is reported pIC50 greater than or equal to 7 here: `CC[C@]1(NC(=O)c2ccc3ncsc3c2)C[C@H]2CN(CCc3c([nH]c4ccccc34)[C@@](C(=O)OC)(c3cc4c(cc3OC)N(C)[C@H]3[C@@](O)(C(=O)OC)[C@H](OC(C)=O)[C@]5(CC)C=CCN6CC[C@]43[C@@H]65)C2)C1`
Key: Fulfilled

Exercise: Try this compound too: `CC[C@]1(NC(=O)c2ccc(NC(=O)OC)cc2)C[C@H]2CN(CCc3c([nH]c4ccccc34)[C@@](C(=O)OC)(c3cc4c(cc3OC)N(C)[C@H]3[C@@](O)(C(=O)OC)[C@H](OC(C)=O)[C@]5(CC)C=CCN6CC[C@]43[C@@H]65)C2)C1`
Key: Fulfilled

Exercise: And for `CCC(=O)N[C@@]1(CC)C[C@H]2CN(CCc3c([nH]c4ccccc34)[C@@](C(=O)OC)(c3cc4c(cc3OC)N(C)[C@H]3[C@@](O)(C(=O)OC)[C@H](OC(C)=O)[C@]5(CC)C=CCN6CC[C@]43[C@@H]65)C2)C1` ?
Key: Not fulfilled

Exercise: Also need `CC[C@]1(NC(=O)/C=C/c2ccco2)C[C@H]2CN(CCc3c([nH]c4ccccc34)[C@@](C(=O)OC)(c3cc4c(cc3OC)N(C)[C@H]3[C@@](O)(C(=O)OC)[C@H](OC(C)=O)[C@]5(CC)C=CCN6CC[C@]43[C@@H]65)C2)C1` , thanks.
Key: Fulfilled

Exercise: Likewise for `CC[C@]1(NC(=O)c2cccc(S(=O)(=O)F)c2)C[C@H]2CN(CCc3c([nH]c4ccccc34)[C@@](C(=O)OC)(c3cc4c(cc3OC)N(C)[C@H]3[C@@](O)(C(=O)OC)[C@H](OC(C)=O)[C@]5(CC)C=CCN6CC[C@]43[C@@H]65)C2)C1` ?
Key: Not fulfilled
